Collected IC50 for ERK1 (Homo sapiens) across several studies; molecules listed below.
experimental_endpoint: IC50 (nM)

The examples below pair each entry with its known result.
molecule: CC(C)Oc1ccc(-c2n[nH]c3cc4[nH]c(C(=O)N[C@H](C)c5ccccc5)nc4cc23)cn1
tested_on: ERK1 (Homo sapiens)
Sequence (P27361 whole entry): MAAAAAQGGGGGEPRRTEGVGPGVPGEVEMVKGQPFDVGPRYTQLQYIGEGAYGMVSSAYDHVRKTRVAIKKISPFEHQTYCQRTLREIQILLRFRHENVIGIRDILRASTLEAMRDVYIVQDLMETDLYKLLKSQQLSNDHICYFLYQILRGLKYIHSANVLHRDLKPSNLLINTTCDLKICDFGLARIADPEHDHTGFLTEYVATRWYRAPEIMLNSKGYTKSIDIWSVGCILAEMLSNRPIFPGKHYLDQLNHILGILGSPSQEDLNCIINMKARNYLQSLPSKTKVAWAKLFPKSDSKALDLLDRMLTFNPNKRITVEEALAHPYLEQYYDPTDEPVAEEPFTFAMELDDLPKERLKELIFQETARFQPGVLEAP
reading_unit: nM
IC50: 3.43

molecule: C[C@@H](NC(=O)c1nc2cc3c(-c4ccncc4)n[nH]c3cc2[nH]1)c1ccc(F)cc1
tested_on: ERK1 (Homo sapiens)
reading_unit: nM
IC50: 0.41

molecule: COc1cc(F)cc([C@@H](CO)NC(=O)[C@@H](C)N2CCc3sc(-c4nc(NC5CCOCC5)ncc4C)cc3C2=O)c1
tested_on: ERK1 (Homo sapiens)
reading_unit: nM
IC50: 3

molecule: Cc1ccc([C@@H](C)NC(=O)c2nc3cc4c(-c5ccncc5)n[nH]c4cc3[nH]2)cc1
tested_on: ERK1 (Homo sapiens)
reading_unit: nM
IC50: 2.09

(P) O=C(CNC(=O)c1nc2cc3c(-c4ccncc4)n[nH]c3cc2[nH]1)c1ccccc1
(Q) Cc1cccc([C@@H](C)NC(=O)c2nc3cc4c(-c5ccncc5)n[nH]c4cc3[nH]2)c1
(R) CC(=O)c1c(C)c2cnc(Nc3ccc(N4CCNCC4)cc3)nc2n([C@@H]2CC3CCC2C3)c1=O (stereo partly shown)
Order the items by recorded IC50; the first position goes to the largest value. Field: ranking. Enter the labels in the order requested.
R, P, Q
